# TARGET OR TEST SYSTEM: His6-tagged FKBP12 (Homo sapiens)
# Sequence (P62942 whole entry): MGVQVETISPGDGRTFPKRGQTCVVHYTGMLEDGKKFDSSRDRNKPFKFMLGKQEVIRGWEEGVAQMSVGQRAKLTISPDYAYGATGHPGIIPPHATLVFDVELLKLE
# ASSAY EXPLANATION: [3H]-FK506 binding on Ni-chelated FLASH plate
# MEASUREMENT SETUP: read-out: FKBP 12 (Kd)
METRIC NAME: Kd

query: Data request, read-out Kd, for CCC(C)(C)C(=O)C(=O)N1CCC[C@H]1C(=O)OCCCc1cccnc1 [GPI-1046, reference compound]
result: > 0.11 µM
